measured on: soluble A-beta oligomers (beta-amyloid 1-42 oligomer, 20% biotin) (Homo sapiens)
Sequence (P05067 672-713): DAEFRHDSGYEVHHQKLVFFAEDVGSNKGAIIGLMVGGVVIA
endpoint label: pIC50
Kindly note that pIC50 refers to -log10 of the concentration in mol/L and answer with the value alone.

Per the records, this compound ( O=Cc1ccc(-c2oc3ccccc3c2CO)o1 [Formula II] ) has pIC50 equal to 4.22
